Tested on: EKVX
Assay: NCI tumour cell line growth inhibition, 48 h
Calls of active or inactive are those of the source. No stated cut-off is given here; in the data, active = GI50 up to about 1.1 µM and inactive = higher.
Your answer must be one of the following: active, inactive

Lookup: Please share the test call associated with CCOC(=O)C1c2[nH]c3ccccc3c2CCN1C(=O)c1ccc(OC)o1 (stereo not given) .
Found: inactive

Lookup: // return assay outcome for CCCN(CCC)C(=S)N/N=C/c1ccccn1
Found: active

Lookup: What was the test verdict on O=C(CC(=O)n1nc(-c2ccccc2)c(/N=N/c2ccc(Cl)cc2)c1-c1ccccc1)Nc1ccc(Cl)cc1 ?
Found: inactive

Lookup: Per the assay record, what outcome was assigned to Cc1cc2nc(CC(C(F)(F)F)C(F)(F)F)oc2cc1C ?
Found: inactive

Lookup: Fill in: this test's call for COC(=O)[C@H](CC(C)C)NC1=C(Cl)C(=O)c2c(O)ccc(O)c2C1=O is ___
Found: inactive

Lookup: Lab log entry: C#C[C@]1(O)CC[C@H]2[C@@H]3CCC4=C/C(=N\OCCN(CC)CC)CC[C@]4(C)[C@H]3CC[C@@]21C — outcome as called in the assay?
Found: inactive

Lookup: Called result for CC(=O)Nc1ccc(Nc2nc(=O)[nH]c(=O)[nH]2)cc1
Found: inactive

Lookup: I'd appreciate the recorded outcome for O=C(/C=C1\C[C@H]2C=Nc3ccccc3C(=O)N2C1)NCCCCCNC(=O)/C=C1\C[C@H]2C=Nc3ccccc3C(=O)N2C1 from this test.
Found: inactive

Lookup: Recorded call for CCc1ccccc1NC(=O)CCc1n[nH]c(=S)o1 ?
Found: inactive

Lookup: Please indicate how the test categorized O=c1c2ccccc2nc(-c2ccccc2)n1/N=C/c1ccccc1[N+](=O)[O-] .
Found: inactive

Lookup: Fill in: this test's call for Cc1ccc(NC(=O)/C(C#N)=C/c2ccccc2)c(C)c1 is ___
Found: inactive

Lookup: Which result was noted for this molecule in the test: N#Cc1ccc(OC(=O)c2ccc(NC(=N)N)cc2)cc1.c1ccncc1
Found: inactive

Lookup: Could you kindly confirm the outcome this assay logged for O=[N+]([O-])c1cc(CCl)ccc1CCl ?
Found: inactive

Lookup: Test call for this molecule, please: O=C(Cc1ccccc1)Oc1ccc2c(-c3ccccc3)c(C(=O)Nc3ccc(Cl)cc3)c(=O)oc2c1
Found: inactive

Lookup: Fill in: this test's call for COc1cc2c(cc1OC(=O)c1cc3ccccc3[nH]1)N=C[C@@H]1CCCN1C2=O is ___
Found: active

Lookup: Hi, do you know how COC(=O)/C(C#N)=C1\NN=NN1CCCc1ccccc1 came out in this test?
Found: inactive

Lookup: Tell me the assay call for COc1ccc2nc3cc(Cl)ccc3c(NCCC(=O)OCC(O)C(O)C(O[C@H](C)C(=O)NC(C)C(=O)NC(CCC(N)=O)C(=O)OCc3ccccc3)C(C=O)NC(C)=O)c2c1 (stereo not given in full) please.
Found: inactive

Lookup: GET /call?item= Cc1cc(Cl)ccc1NC(=O)C1C(=O)C(=O)N(c2ccc(Cl)cc2C)C1=O (stereo not given) returns the recorded outcome of this test.
Found: inactive

Lookup: For CN(C)c1ccc(/C=C/c2ccc3ccccc3[n+]2C)cc1 , which call appears in the assay record?
Found: inactive

Lookup: In this assay, the call recorded for COC(=O)/C(=C\C(=O)c1ccc(Br)cc1)NN=C(c1ccccc1)c1ccccc1 was what?
Found: inactive

Lookup: Hi, do you know how CCOC(=O)C1Nc2ccccc2[C@H]2OCC[C@@H]12 (stereo not given in full) came out in this test?
Found: inactive

Lookup: Just curious, what result did C#Cc1c(C)c(/C=C/C(C)=C/C=C/C(C)=C/C(=O)OC)n(C)c1C get here?
Found: inactive

Lookup: Dear all, I need the recorded test outcome for CCCCCCC(O)C(=O)OC1C2C(CC1(C)C)C(O)C13OC1C(O)C1(CO1)[C@@]23C (stereo not given in full) , thank you.
Found: inactive

Lookup: Look up the recorded call for COc1cc2cc3c4c(cc(OC)c(OC)c4c2cc1OC)CCN3C(=O)CCC(=O)O in this test.
Found: inactive

Lookup: Look up the recorded call for CC(C)COP(C)(=O)C(N)(C(F)(F)F)C(F)(F)F (stereo not given) in this test.
Found: inactive

Lookup: Hi, sorry to bother you, what did the test record for COc1ccccc1NC(=O)C(C#N)=C(SC)SC ?
Found: inactive

Lookup: Test call for this molecule, please: O=c1nc(-c2ccccc2)scc1-c1ccccc1
Found: inactive

Lookup: Outcome logged for COC(=O)c1c2c(cc3c1CCC3)CCC2 in this assay:
Found: inactive

Lookup: In this assay, the call recorded for CN1CCN(c2nc3cc(F)ccc3n3cccc23)CC1 was what?
Found: inactive

Lookup: Outcome? C=C1CCCC2[C@](C)(CC3=C(Cl)C(=O)C=C(OC)C3=O)C(C)CC[C@]12C (stereo not given in full)
Found: inactive

Lookup: Hi team, can someone confirm the assay call for N=C(N)NS(=O)(=O)c1ccc(Nc2c3ccccc3nc3c(C(=O)N4CCN(CCO)CC4)cccc23)cc1 ?
Found: inactive

Lookup: What classification did CS(=O)(=O)c1nc(-c2cc3c(c(S(C)(=O)=O)n2)CCCC3)cc2c1CCCCC2 end up with in this test?
Found: inactive

Lookup: Assay result, entry CCCCOC(=O)Nc1ccc(S(=O)(=O)Nc2ccccc2Cl)cc1 — outcome?
Found: inactive

Lookup: Could you kindly confirm the outcome this assay logged for COc1ccc(-c2nc(SCC(=O)N/N=C/c3ccc(O)c(OC)c3)[nH]c2-c2ccc(OC)cc2)cc1 ?
Found: inactive

Lookup: Please let me know the test result on file for CCn1c2ccccc2c2ccc(C3C(C(=O)OC)=C(C)NC(C)=C3C(=O)OC)cc21 .
Found: inactive

Lookup: // param item: COC(=O)/C=C1/OC(c2ccccc2)=C(Br)C1=O ; yields the recorded call
Found: inactive

Lookup: Recorded call for O=C1c2ccccc2C(=O)N1CCSCC(CO)SCCN1C(=O)c2ccccc2C1=O (stereo not given) ?
Found: inactive

Lookup: Fill in: this test's call for Cc1ccccc1Nc1nc2c(s1)C(=O)c1ccccc1C2=O is ___
Found: inactive

Lookup: Fill in: this test's call for CC(C)=CCC[C@@H](C)C1=C(O)C(=O)C(C)=C(Nc2ccccc2Cl)C1=O is ___
Found: inactive

Lookup: Would you mind telling me which call this test gave CCOC(=O)NC(=O)c1cn(CCSCCOC(=O)NCCCCCCNC(=O)OCCSCCn2cc(C(=O)NC(=O)OCC)c(=O)n(C)c2=O)c(=O)n(C)c1=O ?
Found: inactive

Data credit: ChEMBL document CHEMBL1201862
